These measurements were taken from the MegaScale stability set (Tsuboyama et al. 2023).

B1: EEHEE_rd3_1049 (parent)
chain: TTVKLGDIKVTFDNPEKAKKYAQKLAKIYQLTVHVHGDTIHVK

variants of: B1; assay: folding stability dG (cDNA display proteolysis); higher = more stable; conditions: PBS, room temperature
# binning rule on folding stability dG: bottom bin = under 1 kcal/mol, middle bin = from 1 kcal/mol up to 2 kcal/mol, top bin = 2 kcal/mol and over

Query Sequence	Answer Label
TTVKLGDIKVTFDNPEKGKKYAQKLAKIYQLTVHVHGDTIHVK [A18G]	bottom bin
TTVKLGDIKVTFDNFEKAKKYAQKLAKIYQLTVHVHGDTIHVK [P15F]	top bin
TTVKLGDIKVTFDNPEKAKKYAQKLAKIYQLTVHVHGDTIEVK [H41E]	top bin
TTVKLMDIKVTFDNPEKAKKYAQKLAKIYQLTVHVHGDTIHVK [G6M]	middle bin
TTVKLGDIKVTFDNPEKAKKYAYKLAKIYQLTVHVHGDTIHVK [Q23Y]	top bin
TTVKLGDIKVTFDNPEKAKKYAQKLAKIYQLTVHVHGDFIHVK [T39F]	middle bin
TTVKLGDIPVTFDNPEKAKKYAQKLAKIYQLTVHVHGDTIHVK [K9P]	bottom bin
TTVKLGDIKVTFDNPKKAKKYAQKLAKIYQLTVHVHGDTIHVK [E16K]	middle bin

// bin(item) where item = TTVKLGDIKVTFDNPEKAKKYAQKLAKIYQFTVHVHGDTIHVK [L31F]
middle bin

Band assignment needed for TTVKLGDIKVTFDNPEKDKKYAQKLAKIYQLTVHVHGDTIHVK [A18D] please.
bottom bin

Determine which band this variant sits in: TTVKLGDIKVTFDNPEKAKKYAQFLAKIYQLTVHVHGDTIHVK [K24F]
top bin

Determine which band this variant sits in: TTVKLGDIKVTFDNPEKAPKYAQKLAKIYQLTVHVHGDTIHVK [K19P]
bottom bin

Exercise: read the entry TTVRLGDIKVTFDNPEKAKKYAQKLAKIYQLTVHVHGDTIHVK [K4R] and state which class it falls under.
top bin
